Listing of entries alongside the reported IC50.
System: HCT-116
METHOD: Cytotoxicity against human HCT116 cells after 24 hrs by MTT assay
Format: functional, cell-based
MEASUREMENT_PARAMETERS: HCT-116, 24 h

- MOLECULE: "CC(C)CCNc1ccc2nnn3c4ccccc4c(=O)c1c23"
  IC50 [µM]: 3.2
- MOLECULE: "COc1ccc(Nc2ccc3nnn4c5ccccc5c(=O)c2c34)cc1"
  IC50 [µM]: 1.9
- MOLECULE: "COc1ccc2c(c1)c(=O)c1c(NCC[N+](C)(C)[O-])ccc3nnn2c31"
  IC50 [µM]: 57
- MOLECULE: "O=c1c2ccccc2n2nnc3ccc(NCCCO)c1c32"
  IC50 [µM]: 0.99

====

Tested on: Nucleic Acid
METHOD: Binding affinity to salmon sperm DNA assessed as change in melting temperature at 10 uM under high salt concentration by spectrophotometry
Type: nucleic-acid assay
MEASUREMENT_PARAMETERS: Salmonidae
METRIC_NAME: ΔTm

- MOLECULE: "C[N+](C)([O-])CCNc1ccc2nnn3c4ccc(Br)cc4c(=O)c1c23"
  RESULT: "0.45 °C"
- MOLECULE: "COc1ccc(Nc2ccc3nnn4c5ccccc5c(=O)c2c34)cc1"
  RESULT: "0.19 °C"
- MOLECULE: "COc1ccc2c(c1)c(=O)c1c(NCCCO)ccc3nnn2c31"
  RESULT: "0.19 °C"
- MOLECULE: "CC(C)CCNc1ccc2nnn3c4ccccc4c(=O)c1c23"
  RESULT: "0.23 °C"
- MOLECULE: "COc1ccc2c(c1)c(=O)c1c(NCCN(C)C)ccc3nnn2c31"
  RESULT: "0.08 °C"
- MOLECULE: "CN(C)CCNc1ccc2nnn3c4ccccc4c(=O)c1c23"
  RESULT: "0.33 °C"
- MOLECULE: "C[N+](C)([O-])CCNc1ccc2nnn3c4ccccc4c(=O)c1c23"
  RESULT: "0.22 °C"
- MOLECULE: "COc1ccc2c(c1)c(=O)c1c(NCC[N+](C)(C)[O-])ccc3nnn2c31"
  RESULT: "0.3 °C"
- MOLECULE: "O=c1c2ccccc2n2nnc3ccc(NCCc4ccccc4)c1c32"
  RESULT: "0.31 °C"
- MOLECULE: "O=c1c2ccccc2n2nnc3ccc(NCCCO)c1c32"
  RESULT: "1.48 °C"
- MOLECULE: "COc1ccc2c(c1)c(=O)c1c(NCCc3ccccc3)ccc3nnn2c31"
  RESULT: "0.08 °C"
- MOLECULE: "CN(C)CCNc1ccc2nnn3c4ccc(Br)cc4c(=O)c1c23"
  RESULT: "0.2 °C"
- MOLECULE: "CC(C)CCNc1ccc2nnn3c4ccc(Br)cc4c(=O)c1c23"
  RESULT: "0.09 °C"
- MOLECULE: "CN(C)CCNc1ccc2nnn3c4ccc(F)cc4c(=O)c1c23"
  RESULT: "0.03 °C"
- MOLECULE: "O=c1c2cc(Br)ccc2n2nnc3ccc(NCCCO)c1c32"
  RESULT: "0.42 °C"

====

Tested on: HCT-116
METHOD: Cytotoxicity against human HCT116 cells after 24 hrs by MTT assay
Format: functional, cell-based
MEASUREMENT_PARAMETERS: HCT-116, 24 h
Decision: IC50 beneath 10 µM gives met; IC50 meeting or exceeding 10 µM gives not met.

- MOLECULE: "CN(C)CCNc1ccc2nnn3c4ccccc4c(=O)c1c23"
  ASSIGNED_CLASS: "not met"
- MOLECULE: "C[N+](C)([O-])CCNc1ccc2nnn3c4ccccc4c(=O)c1c23"
  ASSIGNED_CLASS: "not met"
- MOLECULE: "COc1ccc2c(c1)c(=O)c1c(NCCCO)ccc3nnn2c31"
  ASSIGNED_CLASS: "met"
- MOLECULE: "COc1ccc2c(c1)c(=O)c1c(NCCN(C)C)ccc3nnn2c31"
  ASSIGNED_CLASS: "met"
- MOLECULE: "CC(C)CCNc1ccc2nnn3c4ccc(Br)cc4c(=O)c1c23"
  ASSIGNED_CLASS: "not met"
- MOLECULE: "O=c1c2cc(Br)ccc2n2nnc3ccc(NCCCO)c1c32"
  ASSIGNED_CLASS: "met"
- MOLECULE: "CN(C)CCNc1ccc2nnn3c4ccc(F)cc4c(=O)c1c23"
  ASSIGNED_CLASS: "met"
- MOLECULE: "CN(C)CCNc1ccc2nnn3c4ccc(Br)cc4c(=O)c1c23"
  ASSIGNED_CLASS: "met"
- MOLECULE: "O=c1c2ccccc2n2nnc3ccc(NCCc4ccccc4)c1c32"
  ASSIGNED_CLASS: "met"
- MOLECULE: "C[N+](C)([O-])CCNc1ccc2nnn3c4ccc(Br)cc4c(=O)c1c23"
  ASSIGNED_CLASS: "not met"
- MOLECULE: "COc1ccc2c(c1)c(=O)c1c(NCCc3ccccc3)ccc3nnn2c31"
  ASSIGNED_CLASS: "not met"

====

System: Nucleic Acid
METHOD: Binding affinity to salmon sperm DNA assessed as change in melting temperature at 10 uM under low salt concentration by spectrophotometry
Format: nucleic-acid assay
MEASUREMENT_PARAMETERS: Salmonidae

- MOLECULE: "COc1cccc2c1C(=O)c1c(O)c3c(c(O)c1C2=O)C[C@@](O)(C(=O)CO)C[C@@H]3O[C@H]1C[C@H](N)[C@H](O)[C@H](C)O1"
  ΔTm: "8 °C"
- MOLECULE: "COc1ccc2c(c1)c(=O)c1c(NCC[N+](C)(C)[O-])ccc3nnn2c31"
  ΔTm: "0.15 °C"
- MOLECULE: "O=c1c2ccccc2n2nnc3ccc(NCCc4ccccc4)c1c32"
  ΔTm: "1.7 °C"
- MOLECULE: "CN(C)CCNc1ccc2nnn3c4ccccc4c(=O)c1c23"
  ΔTm: "1.7 °C"
- MOLECULE: "CN(C)CCNc1ccc2nnn3c4ccc(F)cc4c(=O)c1c23"
  ΔTm: "2.6 °C"

====

ASSAYED_TARGET: NAD(P)H dehydrogenase [quinone] 1 (Homo sapiens, UniProt P15559)
Sequence (P15559 whole entry): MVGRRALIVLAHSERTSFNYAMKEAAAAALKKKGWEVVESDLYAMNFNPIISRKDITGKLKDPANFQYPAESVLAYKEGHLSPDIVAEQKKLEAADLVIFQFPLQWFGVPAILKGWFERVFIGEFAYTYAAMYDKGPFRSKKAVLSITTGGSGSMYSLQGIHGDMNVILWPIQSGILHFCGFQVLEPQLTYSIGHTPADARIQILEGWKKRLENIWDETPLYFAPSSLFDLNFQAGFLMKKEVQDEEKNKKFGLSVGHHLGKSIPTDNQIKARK
METHOD: Inhibition of human recombinant NQO1 by spectrophotometry
pIC50: −log10 of the molar value.

- MOLECULE: "COc1ccc2c(c1)c(=O)c1c(NCCN(C)C)ccc3nnn2c31"
  pIC50: 6.95
- MOLECULE: "O=c1c2ccccc2n2nnc3ccc(NCCc4ccccc4)c1c32"
  pIC50: 5.48
- MOLECULE: "COc1ccc2c(c1)c(=O)c1c(NCCc3ccccc3)ccc3nnn2c31"
  pIC50: 5.41
- MOLECULE: "CN(C)CCNc1ccc2nnn3c4ccccc4c(=O)c1c23"
  pIC50: 5.74

====

Listing of entries alongside the reported IC50.
ASSAYED_TARGET: Ribosyldihydronicotinamide dehydrogenase [quinone] (Homo sapiens)
Sequence (P16083 whole entry): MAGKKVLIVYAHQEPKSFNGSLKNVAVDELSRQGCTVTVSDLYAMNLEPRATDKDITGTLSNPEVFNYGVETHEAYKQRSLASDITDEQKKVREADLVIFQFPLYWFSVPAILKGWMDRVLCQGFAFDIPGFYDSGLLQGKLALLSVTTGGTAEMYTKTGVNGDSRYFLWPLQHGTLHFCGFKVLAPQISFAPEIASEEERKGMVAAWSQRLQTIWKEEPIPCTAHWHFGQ
METHOD: Inhibition of human recombinant NQO2 by spectrophotometry

- MOLECULE: "COc1ccc2c(c1)c(=O)c1c(NCC[N+](C)(C)[O-])ccc3nnn2c31"
  IC50, nM: 98
- MOLECULE: "CC(C)CCNc1ccc2nnn3c4ccc(Br)cc4c(=O)c1c23"
  IC50, nM: 767
- MOLECULE: "COc1ccc2c(c1)c(=O)c1c(NCCN(C)C)ccc3nnn2c31"
  IC50, nM: 1330
- MOLECULE: "CN(C)CCNc1ccc2nnn3c4ccc(F)cc4c(=O)c1c23"
  IC50, nM: 783
- MOLECULE: "CC(C)CCNc1ccc2nnn3c4ccccc4c(=O)c1c23"
  IC50, nM: 427
- MOLECULE: "C[N+](C)([O-])CCNc1ccc2nnn3c4ccc(Br)cc4c(=O)c1c23"
  IC50, nM: 117
- MOLECULE: "C[N+](C)([O-])CCNc1ccc2nnn3c4ccccc4c(=O)c1c23"
  IC50, nM: 167
- MOLECULE: "CN(C)CCNc1ccc2nnn3c4ccc(Br)cc4c(=O)c1c23"
  IC50, nM: 1480
- MOLECULE: "COc1ccc(Nc2ccc3nnn4c5ccccc5c(=O)c2c34)cc1"
  IC50, nM: 98
- MOLECULE: "CN(C)CCNc1ccc2nnn3c4ccccc4c(=O)c1c23"
  IC50, nM: 1830
- MOLECULE: "COc1ccc2c(c1)c(=O)c1c(NCCCO)ccc3nnn2c31"
  IC50, nM: 517
- MOLECULE: "O=c1c2ccccc2n2nnc3ccc(NCCc4ccccc4)c1c32"
  IC50, nM: 567
- MOLECULE: "O=c1c2ccccc2n2nnc3ccc(NCCCO)c1c32"
  IC50, nM: 483
- MOLECULE: "COc1ccc2c(c1)c(=O)c1c(NCCc3ccccc3)ccc3nnn2c31"
  IC50, nM: 350
- MOLECULE: "O=c1c2cc(Br)ccc2n2nnc3ccc(NCCCO)c1c32"
  IC50, nM: 987
